Assay: Single-dose oral pharmacokinetics in non-tumor bearing mice
Format: in vivo
Details: female, NOD/scid; 30 mg/kg single oral, mouse plasma
propertyName: AUC(0-t) (ng·h/mL)
# value in ng·h/mL; strip the unit string

Look up AUC(0-t) for this compound: CN1CCN(c2ccc(Nc3ncc4cc(C#N)c(=O)n(C5CCCC5)c4n3)cc2)CC1
1040

* * *

Tested on: Ba/F3-FLT3-ITD (Y842H)
Assay: Ba/F3-FLT3-ITD (Y842H) proliferation assay
Assay type: cell-based, mouse
Details: Mus musculus
propertyName: IC50 (nM)
# value in nM; strip the unit string

Form field - read-out: IC50; system: Ba/F3-FLT3-ITD (Y842H); submitted item: CN1CCN(c2ccc(Nc3ncc4cc(C#N)c(=O)n(C5CCCC5)c4n3)cc2)CC1
33.7

* * *

System: Ba/F3-CSF1R cell line
Experiment: Ba/F3-CSF1R proliferation assay (CTG)
Format: cell-based, mouse
Details: + 100 ng/ml CSF-1
propertyName: IC50 (nM)
# value in nM; strip the unit string

Form field - read-out: IC50; system: Ba/F3-CSF1R cell line; submitted item: COc1ccc(COc2ccc(Cc3cnc(N)nc3N)cc2OC)cc1 [GW2580, reference compound]
59.5

* * *

Tested on: KG-1A
Assay: AML cell line in vitro proliferation assay
Type: cell-based
Conditions: Homo sapiens, 72 h, CTG
propertyName: pIC50
Would you please state pIC50, meaning minus log10 of the concentration in mol/L, as a bare number?

Look up pIC50 for this compound: CN1CCN(c2ccc(Nc3ncc4cc(C#N)c(=O)n(C5CCCC5)c4n3)cc2)CC1
5.98

* * *

System: CMK-115
Experiment: AML cell line in vitro proliferation assay
Assay type: cell-based
Conditions: CMK-11-5; CMK-115, 72 h, CTG
propertyName: IC50

Look up IC50 for this compound: CN1CCN(c2ccc(Nc3ncc4cc(C#N)c(=O)n(C5CCCC5)c4n3)cc2)CC1
5.07 µM

* * *

Test system: KG-1
Experiment: AML cell line in vitro proliferation assay
Type: cell-based
Details: Homo sapiens; KG-1, 72 h, CTG
propertyName: pIC50
Would you please state pIC50, meaning minus log10 of the concentration in mol/L, as a bare number?

Look up pIC50 for this compound: CN1CCN(c2ccc(Nc3ncc4cc(C#N)c(=O)n(C5CCCC5)c4n3)cc2)CC1
5.75

* * *

Experiment: Single-dose oral pharmacokinetics in non-tumor bearing mice
Format: in vivo
Details: female, NOD/scid; 100 mg/kg single oral, mouse plasma
propertyName: AUC(0-t) (µg·h/mL)
# value in µg·h/mL; strip the unit string

Look up AUC(0-t) for this compound: CN1CCN(c2ccc(Nc3ncc4cc(C#N)c(=O)n(C5CCCC5)c4n3)cc2)CC1
8.19

* * *

System: Ba/F3-FLT3-ITD (D835Y)
Assay: Ba/F3-FLT3-ITD (D835Y) proliferation assay
Assay type: cell-based, mouse
Conditions: Mus musculus
propertyName: pIC50
Would you please state pIC50, meaning minus log10 of the concentration in mol/L, as a bare number?

Look up pIC50 for this compound: CN1CCN(c2ccc(Nc3ncc4cc(C#N)c(=O)n(C5CCCC5)c4n3)cc2)CC1 [Narazaciclib, narazaciclib]
7.22

* * *

Tested on: M2 primary macrophages
Test: Primary macrophage proliferation assay
Assay type: cell-based
Conditions: Homo sapiens, M-CSF : GM-CSF Ratio 50:50, read-out: IC50 M2-Macrophages Growth Inhibition
Method: Human primary monocytes were isolated with an EasySep™ monocyte isolation kit (Stem Cell) from cryopreserved human PBMCs. […] Narazaciclib was serially diluted with culture medium to 9 final concentrations from 0.004 µM to 24 µM. […] Luminescence was recorded […]. The proliferation inhibition IC50 (half maximal inhibition concentration) of narazaciclib was determined by fitting the dose–response data to a four-parameter stimulation model.
propertyName: pIC50
Would you please state pIC50, meaning minus log10 of the concentration in mol/L, as a bare number?

Look up pIC50 for this compound: CN1CCN(c2ccc(Nc3ncc4cc(C#N)c(=O)n(C5CCCC5)c4n3)cc2)CC1
5.40
